- Subject of test: T1, human LAG-3 ECD/Fc fusion protein (human)
- T1 construct: also called HuLAG-3 ECD/Fc
- Assay protocol: ELISA, coated huLAG-3 ECD/Fc
Endpoint name: pEC50
Give bare numbers, as −log10 of the molar value.

Input mAb749 (antibody, V domains shown, murine hybridoma anti-LAG-3 mAb) VH: EVQLQQSGAELVRPGASVKVSCTASDFNIKDDYVHWVKQRPEQGLEWIGWIDPENGDTEYASKFQGKATITADTSSNTAYLQLSSLTSEDTAVYFCSTWDAEENYWGQGTTLSVSS VL: DIVLTQAAPSVPVTPGESVSISCRSSKSLLHSNGNTYLYWFLQRPGQSPQVLIYRMSNLASGVPVRFSGSGSGTAFTLRISRVEAEDVGVYYCMQHLEYPFTFGSGTKLEIK , output reported pEC50.
9.26
